From: paper PMC9482650

# MEASUREMENT TARGET: ARHGEF12, Q9NZN5-2
# Sequence (Q9NZN5 other isoform, or with tags, fused parts or gaps): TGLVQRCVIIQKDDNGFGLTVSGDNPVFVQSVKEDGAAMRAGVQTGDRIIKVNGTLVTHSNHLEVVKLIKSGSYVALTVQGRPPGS
# ASSAY NOTES: holdup assay
# Set-up: key: below the threshold = too weak to quantify, mostly under pKd 3.1 to 4
# SETTINGS: plain residues with an end cap or a label only (N-terminal biotin on a linker: ttds)
ASSAY ENDPOINT: pKd
Respond numerically, and do not add a unit to the figure.

Worked cases, answers included:
>>> readout_number("SRPQRTQTQV [HPV67-E6, A4U7F2]")
4
>>> readout_number("SVWLRKETRV [CYSLTR2, Q9NS75]")
4.23

Task item: What value of pKd has been reported for the following binder? IYVPEAQTRL [DLGAP4, Q9Y2H0]
Reply: 4.1

Task item: Query: pKd; subject: SSRTRRETQL [HPV16-E6, P03126]
Reply: 4.92

Task item: Would you kindly share the measured pKd for IDNDTESTAL [ARHGAP17, Q68EM7] ?
Reply: 4.77
